Numbers sourced from patent US8008547B2.

Assignment: determine reported Km for the given molecules.
assay-method-text: Standard protocol for determination of kcat and KM (continuous spectrophotometric assay, Acetyl CoA hydrolysis at 235 nm)
Type: biochemical
condition-details: purified protein; about 23° C.; pH 6.8; 0.2 mM acetyl CoA; glyphosate 0.125 to 10 mM
# output: bare number, implied unit mM

Quick note, Km for SEQ ID NO: 292: GAT polypeptide (protein, 12_6F9, GAT polypeptide) MIEVKPINAEDTYEIRHRILRPNQPLEACKYETDLLGGTFHLGGYYRGKLISIASFHQAEHPELEGQKQYQLRGMATLEGYREQKAGSTLIRHAEELLRKKGADLLWCNARTSASGYYKKLGFSEQGEVYDIPPTGPHILMYKKLT landed at 1.9

Quick note, Km for SEQ ID NO: 358: GAT polypeptide (protein, 3B_10G7, GAT polypeptide) MIEVKPINAEDTYEIRHRILRPNQPLEACMYETDLLGGTFHLGGYYRGKLISIASFHQAEHSELEGQKQYQLRGMATLEGYREQKAGSTLIRHAEELLRKKGADLLWCNARTSASGYYKKLGFSEQGGVYDIPPIGPHILMYKKLT landed at 1
